Below is a list of entries, each paired with its recorded s/n ratio value.
- tested_on: T1, PCSK9Δhelix (human, Chemically biotinylated in the phage ELISAs; the site is not given.)
- T1 construct: construct M1-Q692 with engineered TEV site, cleaved by TEV; also called His-PCSK9Δhelix; open groove PCSK9Δhelix
- experimental_details: phage spot ELISA
Ends that are not written are not given here.
Write the number on its own, no unit after it.

Input TAFTSWEEYLDWVGSGQTTYLRVSSS [SEQ ID NO 341] , output reported s/n ratio. 24.4

Input TAFTSWEEYLDWVGSGSPCRVGYTPC [SEQ ID NO 351] , output reported s/n ratio. 25.4

Input TAFTSWEEYLDWVGSGSYRGAWSVFGGSTD [SEQ ID NO 336] , output reported s/n ratio. 17.2

Input TAFTSWEEYLDWVGSGRGEVYDKGGVIVHL [SEQ ID NO 343] , output reported s/n ratio. 30.1

Input TAFTSWEEYLDWVGSGQELPNHRRLS [SEQ ID NO 346] , output reported s/n ratio. 14.3

Next item in the queue.
Input TAFTSWEEYLDWVGSGQISYLRNA (not fully specified; also: Q (1) D-amino acid, place in chain unclear (phage-displayed)) [SEQ ID NO 342] , output reported s/n ratio. 22.6

Source of measurements: patent US20200283478A1
